test_method_notes: Terminal half-life in rat at 0.5 mg/kg, iv
Assay type: ADME, organism-based
test_parameters: in vivo, read-out: beta t1/2 (converted)
endpoint_name: half-life (h)
# number only, unit h dropped from output

half-life reading for "C[C@@H]1CC(c2cnc3c(C#N)nn([C@H](C)c4ccc(Cl)cc4Cl)c3n2)=CC[C@@H]1N1CCC[C@H]1CO" : 2.2

---

Observed IC50 values for Cytochrome P450 3A4 (Homo sapiens, UniProt P08684) are listed in what follows.

{"smiles_string": "C[C@@H]1CC(c2cnc3c(C#N)nn([C@H](C)c4ccc(Cl)cc4Cl)c3n2)=CC[C@@H]1N1CCC[C@H]1CO", "value": "> 10 µM"}

Pending compound:
The compound "C[C@@H]1CN(c2cnc3c(C#N)nn([C@H](C)c4ccc(Cl)cc4Cl)c3n2)CC[C@@H]1N1CCC[C@H]1CO" , tested on Cytochrome P450 3A4 (Homo sapiens, UniProt P08684), showed IC50 of > 10 µM

---

test_system: Cytochrome P450 2D6 (Homo sapiens, UniProt P10635)
Sequence (P10635 whole entry): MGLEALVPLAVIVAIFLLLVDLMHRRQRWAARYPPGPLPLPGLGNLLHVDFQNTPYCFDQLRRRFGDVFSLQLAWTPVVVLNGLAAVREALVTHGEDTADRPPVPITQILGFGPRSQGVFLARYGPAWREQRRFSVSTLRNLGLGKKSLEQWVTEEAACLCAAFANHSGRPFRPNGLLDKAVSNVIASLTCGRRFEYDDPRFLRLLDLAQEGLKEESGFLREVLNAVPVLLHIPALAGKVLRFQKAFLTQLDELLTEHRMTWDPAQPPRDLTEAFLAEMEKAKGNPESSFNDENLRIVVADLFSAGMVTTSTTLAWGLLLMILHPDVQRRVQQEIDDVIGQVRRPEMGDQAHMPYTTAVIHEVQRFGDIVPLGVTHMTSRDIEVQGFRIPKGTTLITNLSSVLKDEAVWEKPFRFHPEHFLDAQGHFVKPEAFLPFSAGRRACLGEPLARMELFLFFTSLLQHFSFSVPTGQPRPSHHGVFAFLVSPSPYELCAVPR
pIC50: −log10 of the molar value.
endpoint_name: pIC50

pIC50 reading for "C[C@@H]1CN(c2cnc3c(C#N)nn([C@H](C)c4ccc(Cl)cc4Cl)c3n2)CC[C@@H]1N1CCC[C@H]1CO" : < 5.00

---

test_method_notes: Stability in rat hepatocytes assessed as compound remaining incubated for 60 mins under shaking condition by LC-MS/MS analysis
Format: ADME, cell-based, Hepatocyte
test_parameters: read-out: Stability
// assign true (1) if remaining at 1 h falls strictly below 70%, else false (0) (ties count as false (0))

{"smiles_string": "C[C@@H]1CN(c2cnc3c(C#N)nn([C@H](C)c4ccc(Cl)cc4Cl)c3n2)CC[C@@H]1N1CCC[C@H]1CO", "group_label": "true (1)"}
{"smiles_string": "Cc1nn([C@H](C)c2ccc(Cl)cc2Cl)c2nc(C3=CC[C@H](N4CCC[C@H]4CO)[C@H](C)C3)cnc12", "group_label": "true (1)"}

Check if remaining at 1 h falls below 70% for "C[C@@H]1CC(c2cnc3c(C#N)nn([C@H](C)c4ccc(Cl)cc4Cl)c3n2)=CC[C@@H]1N1CCC[C@H]1CO" .
true (1)

Check if remaining at 1 h falls below 70% for "C[C@@H]1CC(c2cnc3c(C#N)nn([C@H](C)c4ccc(Cl)cc4Cl)c3n2)=CC[C@@H]1N1CCC[C@H]1CN" .
false (0)

---

CLH reference
test_method_notes: Hepatic clearance in rat at 0.5 mg/kg, iv
Assay type: ADME, organism-based
test_parameters: in vivo
# number only, unit mL/min/kg dropped from output

See these solved cases before continuing.
{"compound": "CC1CN(c2cnc3c(C(F)(F)F)nn(C(C)c4ccc(Cl)cc4Cl)c3n2)CCC1N1CCCCC1 (stereo not given)", "unit_text": "mL/min/kg", "CLH": 56.7}
{"compound": "CC1CN(c2cnc3c(C#N)nn(C(C)c4ccc(Cl)cc4Cl)c3n2)CCC1N1CCCCC1 (stereo not given)", "unit_text": "mL/min/kg", "CLH": 101.7}
{"compound": "Cc1nn(C(C)c2ccc(Cl)cc2Cl)c2nc(N3CCC(N4CCCCC4)C(C)C3)cnc12 (stereo not given)", "unit_text": "mL/min/kg", "CLH": 38.3}

CLH reading for CC1CN(c2cnc3cnn(C(C)c4ccc(Cl)cc4Cl)c3n2)CCC1N1CCCCC1 (stereo not given) : 121.7

CLH reading for CC1CN(c2cnc3c(C(N)=O)nn(C(C)c4ccc(Cl)cc4Cl)c3n2)CCC1N1CCCCC1 (stereo not given) : 101.7
